Biological target: Intercellular adhesion molecule 1 (Homo sapiens)
Experiment: Inhibition of sICAM1/LFA1 interaction-mediated human THP1 cell adhesion at 6.25 ug/mL after 1 hr by ELISA
Type: cell-based
Conditions: THP-1
reported_metric: inhibition (%)

# molecule, inhibition, %
records = [
    ("O=C(CCCCCC/C=C/c1ccc2c(c1)OCO2)N1CCCCC1", 28.5),
    ("CC(C)CNC(=O)/C=C/CCCCCC/C=C/c1ccc2c(c1)OCO2 [PIPERCHABAMIDE D]", 20.9),
    ("O=C(/C=C/CCCC/C=C/c1ccc2c(c1)OCO2)N1CCCCC1", 36.8),
    ("CC[C@H](C)C(=O)O[C@H]1C[C@@H](C)C=C2C=C[C@H](C)[C@H](CC[C@@H]3C[C@@H](O)CC(=O)O3)[C@H]21", 37.7),
]

a = O=C(/C=C/C=C/CC/C=C/c1ccc2c(c1)OCO2)N1CCCCC1 [DEHYDROPIPERNOLINE]
b = CC(C)CNC(=O)/C=C/CCCC/C=C/c1ccc2c(c1)OCO2 [RETROFRACTAMIDE C]
IN: Exercise: compare a and b ; which one has the greater inhibition? # respond with the chosen item's label
OUT: a
